# test_method_notes: Determination of pharmacokinetics in rats following oral administration (plasma and brain)
# Format: in vivo, rat
# experimental_conditions: rat, 10 mg/kg oral gavage, solution, plasma
endpoint: Cmax (ng/mL)
The reply should contain only the number, in ng/mL.

Solved entries:
For the molecule O=C(NCC1CCCCC1)Oc1ccc(C(=O)O)cc1 , what Cmax is on record?
7720

Also NC(=O)c1cccc(-c2cccc(OC(=O)NC3CCCCC3)c2)c1 [KDS-4103, reference compound] , if possible.
3160

***
For the molecule O=C(NCC1CCCCC1)Oc1cccc(C(=O)O)c1 , what Cmax is on record?
1250

====

compounds and their reported AUC
# test_method_notes: Determination of pharmacokinetics in rats following oral administration (plasma and brain)
# Type: in vivo, rat
# experimental_conditions: rat, 10 mg/kg oral gavage, solution, plasma
Record the result as a number with its unit.

For the compound O=C(NCC1CCCCC1)Oc1cccc(C(=O)O)c1 , what AUC is on record?
1700 ng·h/mL

Also O=C(NCC1CCCCC1)Oc1ccc(C(=O)O)cc1 , if possible.
8840 ng·h/mL

Also NC(=O)c1cccc(-c2cccc(OC(=O)NC3CCCCC3)c2)c1 [KDS-4103, reference compound] , if possible.
6730 ng·h/mL
